# IC50 listing for each entry below
Molecular target: Protein kinase C (PKC)
Experiment: Inhibitory activity against protein kinase C (PKC)
Format: protein assay, Homo sapiens
Your answer is read as µM, so omit the unit and give the number.

[[record]]
molecule = "O=C1OCC2OC(=O)c3cc(O)c(O)c(O)c3-c3c(O)c(O)c(O)c4c3C(=O)OC(C2OC(=O)c2cc(O)c(O)c(O)c2-c2c1cc(O)c(O)c2O)C1OC(=O)c2c-4c(O)c(O)c(O)c2[C@H]1O (stereo partly drawn)"
result_type = "IC50"
experimental_value = 8


Under Protein kinase C (PKC), report IC50 for O=C(OC1Cc2c(O)cc(O)c([C@H]3c4c(O)cc(O)c([C@H]5c6c(O)cc(O)cc6O[C@H](c6ccc(O)c(O)c6)[C@@H]5OC(=O)c5cc(O)c(O)c(O)c5)c4O[C@H](c4ccc(O)c(O)c4)C3OC(=O)c3cc(O)c(O)c(O)c3)c2O[C@@H]1c1ccc(O)c(O)c1)c1cc(O)c(O)c(O)c1 (stereo partly drawn)
2
